Reference for the values: patent US20240109881A1

- assayed.system: IRAK4 (Homo sapiens, UniProt Q9NWZ3)
- Construct: endogenous in cells; host or cells: THP-1 cells
- Sequence (Q9NWZ3 1-460): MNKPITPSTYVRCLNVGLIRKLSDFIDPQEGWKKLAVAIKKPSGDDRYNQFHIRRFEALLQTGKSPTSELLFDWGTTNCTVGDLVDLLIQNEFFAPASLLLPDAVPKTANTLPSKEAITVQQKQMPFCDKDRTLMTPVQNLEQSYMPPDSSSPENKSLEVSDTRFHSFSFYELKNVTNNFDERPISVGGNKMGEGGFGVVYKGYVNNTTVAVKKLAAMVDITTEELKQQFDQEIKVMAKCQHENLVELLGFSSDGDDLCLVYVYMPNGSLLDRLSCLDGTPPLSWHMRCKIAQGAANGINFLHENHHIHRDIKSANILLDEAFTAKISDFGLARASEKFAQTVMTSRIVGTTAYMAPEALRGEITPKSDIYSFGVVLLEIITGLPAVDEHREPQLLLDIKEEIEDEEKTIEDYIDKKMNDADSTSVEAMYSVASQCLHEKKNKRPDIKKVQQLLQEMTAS
- measurement.protocol: ALE THP1 HTRF (Advanced Lipoxidation End Product THP1 Homogeneous Time Resolved Fluorescence)
- Format: cell-based
- run.parameters: THP1 cells
measured.endpoint: ALE THP1 HTRF YMIN (%)
Your answer should be a plain number; it is taken to be in %.

Please review the entries below; each comes with its answer.
[[record]]
compound = "N#Cc1cnc2c(cnn2-c2cc(NC3CCOCC3)c(C(=O)NC3CCC(CCN4CCN(c5ccc(C6CCC(=O)NC6=O)cc5)CC4)CC3)cn2)c1 (stereo not drawn)"
reported_value = 9.4

[[record]]
compound = "CN(CC1CCN(c2ccc(C3CCC(=O)NC3=O)cc2)CC1)[C@H]1CC[C@H](NC(=O)c2cnc(-n3ncc4cc(C#N)cnc43)cc2NC2CC2)CC1 (stereo partly drawn)"
reported_value = 16.2

[[record]]
compound = "N#Cc1cnc2c(cnn2-c2cc(NC3CC3)c(C(=O)N[C@H]3CC[C@H](C(=O)NC4CCN(c5ccc6c(c5)CN(C5CCC(=O)NC5=O)C6=O)CC4)CC3)cn2)c1 (stereo partly drawn)"
reported_value = 24.2

[[record]]
compound = "N#Cc1cnc2c(c1)c(F)cn2-c1cc(NC2CC2)c(C(=O)NC2CCC(CCN3CCN(c4ccc(C5CCC(=O)NC5=O)cc4)CC3)CC2)cn1 (stereo not drawn)"
reported_value = 24.6

[[record]]
compound = "C[C@H](C#N)Nc1cc(-n2ncc3cc(C#N)cnc32)ncc1C(=O)N[C@H]1CC[C@H](CCN2[C@@H](C)CN(c3ccc(C4CCC(=O)NC4=O)cc3)C[C@@H]2C)CC1 (stereo partly drawn)"
reported_value = 7.1


Now let's try a different one.
Problem: # ALE THP1 HTRF YMIN lookup, item CC(C)CNc1cc(-n2ncc3cc(C#N)cnc32)ncc1C(=O)NC1CCC(CCN2CCN(c3ccc(C4CCC(=O)NC4=O)cc3)CC2)CC1 (stereo not drawn)
Result: 10.1

###

- assayed.system: IRAK4 (Homo sapiens, UniProt Q9NWZ3)
- Construct: endogenous in cells; host or cells: THP-1 cells
- measurement.protocol: LVL THP1 HTRF (THP1 Homogeneous Time Resolved Fluorescence)
- Format: cell-based
- run.parameters: THP1 cells, 18 h incubation with compound
- Description: Cell culture media was prepared in a tissue culture hood in a sterile environment by adding 10% FBS and 1% Penicillin Streptomycin to 500 mL no phenol red RPMI 1640 media. The media was filtered through a Nalgene Bottle Top Filter and stored at 4° C. For Homogenous Time Resolved Fluorescence (HTRF) assays, a Cisbio HTRF kit was used, which included: Lysis Buffer #1 4×, Blocking Reagent #3 100×, 20× Antibody 1 (Anti-IRAK4 d2), 20× Antibody 2 (Anti-IRAK4 k), and Detection Buffer. […]
Lab note: cut-off is 4%. Strictly less in LVL THP1 HTRF YMIN is satisfied. Exactly 4% or more is not satisfied.

[[record]]
compound = "COc1cc([C@@]2(C)CCC(=O)NC2=O)ccc1N1CCN(CC[C@H]2CC[C@H](c3cn(-c4cnc(-n5ncc6cc(C#N)c(N)nc65)cc4N[C@H](C)C#N)nn3)CC2)C[C@H]1C (single isomer, unassigned) [P-304]"
class = "not satisfied"

[[record]]
compound = "C[C@H](C#N)Nc1cc(-n2ncc3cc(C#N)cnc32)ncc1-n1cc([C@H]2CC[C@](O)(CCN3CCN(c4ccc([C@@]5(C)CCC(=O)NC5=O)nc4)CC3)CC2)nn1 (single isomer, unassigned) [P-295]"
class = "not satisfied"

[[record]]
compound = "N#Cc1cnc2c(cnn2-c2cc(N[C@H]3CCC[C@@H]3O)c(-n3cc([C@H]4CC[C@H](CCN5CCN(c6ccc(C7CCC(=O)NC7=O)cc6)CC5)CC4)nn3)cn2)c1 (some centres unmarked)"
class = "satisfied"

[[record]]
compound = "C[C@H](C#N)Nc1cc(-n2ncc3cc(C#N)cnc32)ncc1-n1cc(C[C@H]2CC[C@H](CN3CCN(c4ccc(C5CCC(=O)NC5=O)cc4)CC3)CC2)nn1 (some centres unmarked)"
class = "not satisfied"


Next, consider the following compound.
Problem: Strictly below 4%: is that where LVL THP1 HTRF YMIN of C[C@H](C#N)Nc1cc(-n2ncc3cc(C#N)cnc32)ncc1-n1cc([C@H]2CC[C@H](CCN3CCN(c4cnc(N5CCC(=O)NC5=O)cn4)[C@H](C)C3)CC2)nn1 sits?
Result: satisfied

###

- assayed.system: IRAK4 (Homo sapiens)
- Construct: endogenous in cells; host or cells: THP-1 cells
- Sequence (Q9NWZ3 1-460): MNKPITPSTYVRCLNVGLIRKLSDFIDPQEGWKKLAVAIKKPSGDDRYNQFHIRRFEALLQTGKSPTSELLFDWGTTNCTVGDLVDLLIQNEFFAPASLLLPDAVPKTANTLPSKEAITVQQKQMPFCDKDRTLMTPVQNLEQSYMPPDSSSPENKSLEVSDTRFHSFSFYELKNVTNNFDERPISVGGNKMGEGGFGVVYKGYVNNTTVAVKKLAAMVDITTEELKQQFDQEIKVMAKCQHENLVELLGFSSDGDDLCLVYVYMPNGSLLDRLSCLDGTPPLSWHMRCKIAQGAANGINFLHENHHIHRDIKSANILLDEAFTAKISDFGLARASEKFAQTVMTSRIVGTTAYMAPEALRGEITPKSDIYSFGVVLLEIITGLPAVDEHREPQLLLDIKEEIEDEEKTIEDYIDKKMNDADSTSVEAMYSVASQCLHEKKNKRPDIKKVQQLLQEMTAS
- measurement.protocol: LVL THP1 HTRF (THP1 Homogeneous Time Resolved Fluorescence)
- Type: cell-based
- run.parameters: THP1 cells, 18 h incubation with compound, read-out: LVL THP1 HTRF EC50
measured.endpoint: DC50 (nM)
Your answer should be a plain number; it is taken to be in nM.

Please review the entries below; each comes with its answer.
[[record]]
molecule = "C[C@H](C#N)Nc1cc(-n2ncc3cc(C#N)c(N)nc32)ncc1-n1cc([C@H]2CC[C@H](CCN3CCN(c4ccc([C@@]5(C)CCC(=O)NC5=O)cn4)[C@@H](C)C3)CC2)nn1 (single isomer, unassigned) [P-259]"
reported_value = 26.1

[[record]]
molecule = "C[C@H](C#N)Nc1cc(-n2ncc3cc(C#N)c(N)nc32)ncc1-n1cc([C@H]2CC[C@H](CCN3CCC(c4ccc([C@@]5(F)CCC(=O)NC5=O)cc4)CC3)CC2)nn1 (single isomer, unassigned) [P-317]"
reported_value = 1.3


Problem: # DC50 lookup, item C[C@H](C#N)Nc1cc(-n2ncc3cc(C#N)cnc32)ncc1-n1cc(C2CCC(CCN3C[C@@H](C)N(c4ccc([C@@]5(C)CCC(=O)NC5=O)cc4)C[C@@H]3C)CC2)nn1 (stereo partly drawn) [P-236]
Result: 269

###

- assayed.system: IRAK4 (Homo sapiens)
- Construct: endogenous in cells; host or cells: THP-1 cells
- Sequence (Q9NWZ3 1-460): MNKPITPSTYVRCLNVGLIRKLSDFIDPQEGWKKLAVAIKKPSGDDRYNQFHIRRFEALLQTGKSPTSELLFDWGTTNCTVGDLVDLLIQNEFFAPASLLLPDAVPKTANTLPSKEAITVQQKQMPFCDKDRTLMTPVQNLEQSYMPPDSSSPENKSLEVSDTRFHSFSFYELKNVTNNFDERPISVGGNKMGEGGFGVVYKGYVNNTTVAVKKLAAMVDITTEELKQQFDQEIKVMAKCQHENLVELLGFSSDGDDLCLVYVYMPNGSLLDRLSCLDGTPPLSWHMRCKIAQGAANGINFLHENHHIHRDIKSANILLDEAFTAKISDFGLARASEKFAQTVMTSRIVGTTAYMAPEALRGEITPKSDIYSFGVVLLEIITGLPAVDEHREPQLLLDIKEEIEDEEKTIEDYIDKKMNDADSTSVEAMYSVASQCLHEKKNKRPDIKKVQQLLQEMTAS
- measurement.protocol: LVL THP1 HTRF (THP1 Homogeneous Time Resolved Fluorescence)
- Assay type: cell-based
- run.parameters: THP1 cells, 18 h incubation with compound
- Procedure: Cell culture media was prepared in a tissue culture hood in a sterile environment by adding 10% FBS and 1% Penicillin Streptomycin to 500 mL no phenol red RPMI 1640 media. The media was filtered through a Nalgene Bottle Top Filter and stored at 4° C. For Homogenous Time Resolved Fluorescence (HTRF) assays, a Cisbio HTRF kit was used, which included: Lysis Buffer #1 4×, Blocking Reagent #3 100×, 20× Antibody 1 (Anti-IRAK4 d2), 20× Antibody 2 (Anti-IRAK4 k), and Detection Buffer. […]
LVL THP1 HTRF YMIN for assorted compounds

[[record]]
compound = "C[C@H](C#N)Nc1cc(-n2ncc3cc(C#N)c(N)nc32)ncc1-n1cc([C@H]2CC[C@H](CCN3[C@H](C)CN(c4ccc([C@@]5(C)CCC(=O)NC5=O)cn4)C[C@H]3C)CC2)nn1 (single isomer, unassigned) [P-253]"
reported_value = "9.4%"


Now let's try a different one.
Problem: # LVL THP1 HTRF YMIN lookup, item C[C@H](C#N)Nc1cc(-n2ncc3cc(C#N)cnc32)ncc1-n1cc([C@H]2CC[C@H](CCN3CC[C@H]4[C@@H]3CCN4c3ccc([C@@]4(C)CCC(=O)NC4=O)cn3)CC2)nn1 (single isomer, unassigned) [P-435]
Result: 52.3%
